MEASUREMENT_TARGET: T1, anti-CD28 Fab (SEQ ID NOs: 202, 203)
T1 construct: biotinylated and captured on neutravidin coated plates in the phage ELISA
T1 sequence (VH, as listed by the source, chain 1 of 2): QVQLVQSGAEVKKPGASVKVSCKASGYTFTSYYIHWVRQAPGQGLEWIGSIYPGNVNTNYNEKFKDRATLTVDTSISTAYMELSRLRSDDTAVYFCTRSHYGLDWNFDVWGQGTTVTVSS
T1 sequence (VL, as listed by the source, chain 2 of 2): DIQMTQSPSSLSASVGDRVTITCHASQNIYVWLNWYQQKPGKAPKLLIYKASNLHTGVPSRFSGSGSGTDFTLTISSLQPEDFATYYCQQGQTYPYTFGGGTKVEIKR
ASSAY_EXPLANATION: phage ELISA on captured Fab;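 note: ELISA with clonal phage supernatants added to wells preincubated with CD28 antigen or with blocking buffer only, bound phage detected by HRP-conjugated anti-M13 antibody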
RECORDED_METRIC: Anti-CD28 Fab (SEQ ID NOs: 202, 203) signal

> print(dat)
                                      binder  data.value
 1  YCDGHSLEYMVKCL (on phage, pIII fusion) [Phage-583]        1.46
 2  YCSGHLPEYMWKCL (on phage, pIII fusion) [Phage-508]        1.61
 3  YCAGHVAEYMAKCL (on phage, pIII fusion) [Phage-483]        1.64
 4  YCEGHVTEYMQKCL (on phage, pIII fusion) [Phage-499]        1.62
 5  YCDGHAKEYMDKCL (on phage, pIII fusion) [Phage-452]        1.68
 6  YCEGHMWEYMAKCL (on phage, pIII fusion) [Phage-485]        1.64
 7  YCDGHSEVYMSKCL (on phage, pIII fusion) [Phage-540]        1.55
 8  YCDGHSEAFMQKCL (on phage, pIII fusion) [Phage-495]        1.63
 9  YCDGHHKEYLLKCL (on phage, pIII fusion) [Phage-568]        1.49
10  YCDGHIGLYLNKCL (on phage, pIII fusion) [Phage-463]        1.66
11  YCAGHSSEYIPKCL (on phage, pIII fusion) [Phage-524]        1.58
12  YCDGHSVKYMAKCL (on phage, pIII fusion) [Phage-507]        1.61
13  YCAGHLDQYIEKCL (on phage, pIII fusion) [Phage-517]         1.6
14  YCEGHLAIYQKKCL (on phage, pIII fusion) [Phage-592]        1.44
15  YCDGHSLQYMSKCL (on phage, pIII fusion) [Phage-589]        1.45
16  YCEGHAPQYMNKCL (on phage, pIII fusion) [Phage-456]        1.67
17  YCDGHLAIYIGKCL (on phage, pIII fusion) [Phage-580]        1.47
18  YCEGHTAEHMQKCL (on phage, pIII fusion) [Phage-482]        1.64
19  YCDGHSADYMAKCL (on phage, pIII fusion) [Phage-462]        1.67
20  YCDGHELKYMLKCL (on phage, pIII fusion) [Phage-502]        1.62
21  YCQGHLPQYVEKCL (on phage, pIII fusion) [Phage-534]        1.57
22  YCEGHLAVYMEKCL (on phage, pIII fusion) [Phage-473]        1.65
23  YCDGHSEAYMWKCL (on phage, pIII fusion) [Phage-519]        1.59
24  YCEGHSLMYMAKCL (on phage, pIII fusion) [Phage-563]         1.5
25  YCEGHLGQYMEKCL (on phage, pIII fusion) [Phage-548]        1.54
26  YCAGHLPEYMGKCL (on phage, pIII fusion) [Phage-496]        1.63
27  YCDGHNGVYWWKCI (on phage, pIII fusion) [Phage-549]        1.53
28  YCDGHFLTYMTKCL (on phage, pIII fusion) [Phage-538]        1.56
29  YCEGHLDMYVWKCL (on phage, pIII fusion) [Phage-535]        1.56
30  YCDGHAAEYMAKCV (on phage, pIII fusion) [Phage-459]        1.67
31  YCAGHSLEYMQKCL (on phage, pIII fusion) [Phage-487]        1.63
